Molecular target: Type-1 angiotensin II receptor (Homo sapiens)
Sequence (P30556 whole entry): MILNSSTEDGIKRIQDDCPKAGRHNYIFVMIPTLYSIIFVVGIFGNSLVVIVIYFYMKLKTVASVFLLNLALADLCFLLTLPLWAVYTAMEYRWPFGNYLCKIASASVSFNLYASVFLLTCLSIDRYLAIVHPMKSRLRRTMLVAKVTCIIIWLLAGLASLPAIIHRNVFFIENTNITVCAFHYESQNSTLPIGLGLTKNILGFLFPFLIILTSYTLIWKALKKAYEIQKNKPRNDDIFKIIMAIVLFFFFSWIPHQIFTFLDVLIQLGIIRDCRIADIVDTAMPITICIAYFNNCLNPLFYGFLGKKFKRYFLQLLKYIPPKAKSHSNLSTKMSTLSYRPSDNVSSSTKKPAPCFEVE
endpoint-label: Ki

> print(dat)
                                  structure  endpoint.label  observed.result
1  CCCCN1C(=O)C2(CCCC2)CC(=O)N1Cc1ccc(-c2ccccc2-c2nnn[nH]2)cc1              Ki            80 nM
